- MEASUREMENT_TARGET: T1, human GIP receptor (human) (UniProt P48546)
- T1 sequence (looked up): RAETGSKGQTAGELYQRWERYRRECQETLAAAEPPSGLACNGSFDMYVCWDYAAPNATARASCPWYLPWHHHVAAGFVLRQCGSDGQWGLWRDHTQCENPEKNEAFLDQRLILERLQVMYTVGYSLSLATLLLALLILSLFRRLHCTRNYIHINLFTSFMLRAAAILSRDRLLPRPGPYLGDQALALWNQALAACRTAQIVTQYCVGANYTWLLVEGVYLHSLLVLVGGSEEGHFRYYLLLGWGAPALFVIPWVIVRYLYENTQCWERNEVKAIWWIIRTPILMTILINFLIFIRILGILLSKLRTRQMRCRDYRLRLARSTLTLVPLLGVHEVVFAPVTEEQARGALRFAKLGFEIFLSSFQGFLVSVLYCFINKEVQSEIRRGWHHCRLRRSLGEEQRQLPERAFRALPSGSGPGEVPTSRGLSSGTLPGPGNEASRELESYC
- TEST_DETAILS: cell-based or functional assay
PROPERTY_MEASURED: Relative cAMP EC50 (nM)
Report only the number, with the unit nM understood.

Consider YXQGTFTSDFSXXLDKKAQXAFIEYLLEGGPSSGAPPPSGE (synthetic construct; SITE 2: note = 2-Aminoisobutyric Acid; SITE 12: note = L-ornithine; SITE 13: note = alpha-methyl-leucine; SITE 17: note = Lysine is chemically modified through conjugation of the epsilon-amino group of the Lysine side chain with (2-[2-(2-Amino-ethoxy)-ethoxy]-acetyl)2-(gamma-Glu)) [Example 107] . Its measured Relative cAMP EC50 is 0.426

Consider YXQGTFTSDXSQXLDXKAQXAFIEXLLEGGPSSGAPPPSGSEE (synthetic construct; SITE 2: note = 2-Aminoisobutyric Acid; SITE 10: note = 3-(4-Pyridyl)-L-alanine; SITE 13: note = alpha-methyl-leucine; SITE 16: note = L-ornithine; SITE 17: note = Lysine is chemically modified through conjugation of the epsilon-amino group of the Lysine side chain with (gamma-Gl)) [Example 946] . Its measured Relative cAMP EC50 is 0.353

Consider YXQGTFTSDXSXXLDKKAQXAFIEYLIAGGPSSGEPPPSGTEE (synthetic construct; SITE 2: note = 2-Aminoisobutyric Acid; SITE 10: note = 3-(4-Pyridyl)-L-alanine; SITE 12: note = L-ornithine; SITE 13: note = alpha-methyl-leucine; SITE 17: note = Lysine is chemically modified through conjugation of the epsilon-amino group of the Lysine side chain with (gamma-Gl)) [Example 981] . Its measured Relative cAMP EC50 is 0.243
